measurement-protocol: 3-month treatment of ovariectomized rats: lumbar spine BMD, total body fat, serum cholesterol, ALP (Example 4, experiment 1)
Format: in vivo, rat
conditions: OVX rats, 3 months; E2 1 mg/kg, EM-652.HCl 2.5 mg/kg, DHEA 80 mg/kg
Item-by-item account of LUMBAR SPINE Prevention of Bone Loss
Expressed in %, but write only the number.

[
  {
    "compound": "CC/C(=C(\\c1ccccc1)c1ccc(/C=C/C(=O)O)cc1)c1ccccc1",
    "uom": "%",
    "LUMBAR SPINE Prevention of Bone Loss": 34
  },
  {
    "compound": "CC1=C(c2ccc(O)cc2)[C@H](c2ccc(OCCN3CCCCC3)cc2)Oc2cc(O)ccc21.Cl [EM-652.HCl]",
    "uom": "%",
    "LUMBAR SPINE Prevention of Bone Loss": 65
  },
  {
    "compound": "C[C@]12CC[C@@H]3c4ccc(O)cc4CC[C@H]3[C@@H]1CC[C@@H]2O [E2, 17β-estradiol]",
    "uom": "%",
    "LUMBAR SPINE Prevention of Bone Loss": 98
  }
]

Switching to the query record.
May I ask what LUMBAR SPINE Prevention of Bone Loss has been recorded for C[C@]12CC[C@H](O)CC1=CC[C@@H]1[C@@H]2CC[C@]2(C)C(=O)CC[C@@H]12 [DHEA, dehydroepiandrosterone] ? 43

---

Each entry below lists one item and its recorded ALP (serum alkaline phosphatase activity) value.
measurement-protocol: 3-month treatment of ovariectomized rats: lumbar spine BMD, total body fat, serum cholesterol, ALP (Example 4, experiment 1)
Assay type: in vivo, rat
conditions: OVX rats, 3 months
Numbers only; they are read as IU/L.

// below: answered compounds
[
  {
    "compound": "C[C@]12CC[C@@H]3c4ccc(O)cc4CC[C@H]3[C@@H]1CC[C@@H]2O [E2, 17β-estradiol]",
    "observed": 59
  },
  {
    "compound": "CC/C(=C(\\c1ccccc1)c1ccc(/C=C/C(=O)O)cc1)c1ccccc1",
    "observed": 72
  },
  {
    "compound": "C[C@]12CC[C@H](O)CC1=CC[C@@H]1[C@@H]2CC[C@]2(C)C(=O)CC[C@@H]12 [DHEA, dehydroepiandrosterone]",
    "observed": 224
  }
]

Next item in the queue.
Query (compound): CC1=C(c2ccc(O)cc2)[C@H](c2ccc(OCCN3CCCCC3)cc2)Oc2cc(O)ccc21.Cl [EM-652.HCl] ; field requested: ALP (serum alkaline phosphatase activity) 91

---

measurement-protocol: 5-week treatment of ovariectomized rats with SERMs alone or with DHEA: BMD of lumbar spine, femur, tibia (Example 5)
Format: in vivo, rat
conditions: OVX rats, 5 weeks
readout: DISTAL FEMORAL METAPHYSIS (DFM) BMD (g/cm^2)
Report as a plain number; the unit g/cm^2 is understood.

Fill in the blank: the reported DISTAL FEMORAL METAPHYSIS (DFM) BMD of CC1=C(c2ccc(O)cc2)[C@H](c2ccc(OCCN3CCCCC3)cc2)Oc2cc(O)ccc21.Cl [EM-652.HCl] is ____. 0.3008

---

System: human Ishikawa cells
measurement-protocol: Alkaline phosphatase activity in human endometrial adenocarcinoma Ishikawa cells (Example 6)
conditions: Ishikawa cells, 5-day incubation, 1 nM E2
Measured Maximal inhibition of 1 nM E2-induced stimulation of alkaline phosphatase, listed per entry for reference.

As a guide, the following entries are already answered.
[
  {
    "compound": "Oc1ccc2c(c1)CC[C@H](c1ccccc1)[C@@H]2c1ccc(OCCN2CCCC2)cc1 [Lasofoxifene (free base)]",
    "study-target": "human Ishikawa cells",
    "observed": "85.14 (1)"
  },
  {
    "compound": "CN(C)CCOc1ccc(/C(=C(/CCCl)c2ccccc2)c2ccc(O)cc2)cc1",
    "study-target": "human Ishikawa cells",
    "observed": "75.73 ± 3.52 (3)"
  },
  {
    "compound": "CC1=C(c2ccc(O)cc2)[C@H](c2ccc(OCCN3CCCCC3)cc2)Oc2cc(O)ccc21.Cl [EM-652.HCl]",
    "study-target": "human Ishikawa cells",
    "observed": "98.97 ± 0.174 (18)"
  },
  {
    "compound": "COc1ccc(-c2sc3cc(O)ccc3c2Oc2ccc(OCCN3CCCCC3)cc2)cc1.Cl",
    "study-target": "human Ishikawa cells",
    "observed": "90.25 ± 0.127 (2)"
  },
  {
    "compound": "Cl.O=C(c1ccc(OCCN2CCCCC2)cc1)c1c(-c2ccc(O)cc2)sc2cc(O)ccc12",
    "study-target": "human Ishikawa cells",
    "observed": "94.31 ± 1.74 (5)"
  }
]

Requested read-out Maximal inhibition of 1 nM E2-induced stimulation of alkaline phosphatase, target or system human Ishikawa cells, entry Cc1c(-c2ccc(O)cc2)n(Cc2ccc(OCCN3CCCCC3)cc2)c2ccc(O)cc12 100.16 (1)

---

Each item that follows carries a reported DISTAL FEMORAL METAPHYSIS (DFM) Prevention of Bone Loss.
measurement-protocol: 5-week treatment of ovariectomized rats with SERMs alone or with DHEA: BMD of lumbar spine, femur, tibia (Example 5)
Type: in vivo, rat
conditions: OVX rats, 5 weeks
Quick note: give the figure in %, leave out the unit.

[
  {
    "compound": "C[C@]12CC[C@H](O)CC1=CC[C@@H]1[C@@H]2CC[C@]2(C)C(=O)CC[C@@H]12 [DHEA, dehydroepiandrosterone]",
    "observed": 71
  },
  {
    "compound": "Cc1c(-c2ccc(O)cc2)n(Cc2ccc(OCCN3CCCCC3)cc2)c2ccc(O)cc12",
    "observed": 83
  },
  {
    "compound": "CC1=C(c2ccc(O)cc2)[C@H](c2ccc(OCCN3CCCCC3)cc2)Oc2cc(O)ccc21.Cl [EM-652.HCl]",
    "observed": 95
  }
]

I have this compound here, Cc1c(-c2ccc(O)cc2)n(Cc2ccc(OCCN3CCCCCC3)cc2)c2ccc(O)cc12 , and I need its recorded DISTAL FEMORAL METAPHYSIS (DFM) Prevention of Bone Loss. 70

---

Measured DISTAL FEMORAL METAPHYSIS (DFM) BMD of individual entries
measurement-protocol: 5-week treatment of ovariectomized rats with SERMs alone or with DHEA: BMD of lumbar spine, femur, tibia (Example 5)
Type: in vivo, rat
conditions: OVX rats, 5 weeks
Provide the reading as a plain figure in g/cm^2.

Some solved cases for reference:
[
  {
    "compound": "C[C@]12CC[C@H](O)CC1=CC[C@@H]1[C@@H]2CC[C@]2(C)C(=O)CC[C@@H]12 [DHEA, dehydroepiandrosterone]",
    "uom": "g/cm^2",
    "observed": 0.2934
  },
  {
    "compound": "Cc1c(-c2ccc(O)cc2)n(Cc2ccc(OCCN3CCCCC3)cc2)c2ccc(O)cc12",
    "uom": "g/cm^2",
    "observed": 0.2969
  }
]

Now, please, on to the next compound.
Returns the measured DISTAL FEMORAL METAPHYSIS (DFM) BMD for the input compound. Input: Cc1c(-c2ccc(O)cc2)n(Cc2ccc(OCCN3CCCCCC3)cc2)c2ccc(O)cc12 0.2929
